- System: RXF 393 renal
- ASSAY_NAME: NCI tumour cell line growth inhibition, 48 h
PARAMETER_MEASURED: GI50

>  <COMPOUND_STRUCTURE_STRING>
CC(=O)/C(=C\c1c(-c2ccccc2)[nH]c2ccccc12)S(C)(=O)=O

>  <PARAMETER_MEASURED>
GI50

>  <RESULT_VALUE>
2.56 µM

$$$$
>  <COMPOUND_STRUCTURE_STRING>
COc1ccc(CCc2nc3cc(-c4c(C)noc4C)ccc3n2CCN2CCOCC2)cc1

>  <PARAMETER_MEASURED>
GI50

>  <RESULT_VALUE>
18.7 µM

$$$$
>  <COMPOUND_STRUCTURE_STRING>
COc1cc(-c2cc(-c3nc4ccc(F)cc4[nH]3)[nH]n2)cc(OC)c1OC

>  <PARAMETER_MEASURED>
GI50

>  <RESULT_VALUE>
1.85 µM

$$$$
>  <COMPOUND_STRUCTURE_STRING>
COc1ccc2nc3c(n2c1)C(=O)C(=O)c1ccccc1-3

>  <PARAMETER_MEASURED>
GI50

>  <RESULT_VALUE>
1.84 µM

$$$$
>  <COMPOUND_STRUCTURE_STRING>
COc1cc2nccc(Oc3ccc(NC(=O)C4(C(=O)Nc5ccc(F)cc5)CC4)cc3)c2cc1OC(=O)c1ccc(N)cc1

>  <PARAMETER_MEASURED>
GI50

>  <RESULT_VALUE>
0.314 µM

$$$$
>  <COMPOUND_STRUCTURE_STRING>
C=C(C)[C@@H]1CC[C@]2(C(N)=O)CC[C@]3(C)[C@H](CC[C@@H]4[C@@]5(C)C/C(=C/c6cccnc6)C(=O)C(C)(C)[C@@H]5CC[C@]43C)[C@@H]12

>  <PARAMETER_MEASURED>
GI50

>  <RESULT_VALUE>
3.41 µM

$$$$
>  <COMPOUND_STRUCTURE_STRING>
CCCCCCCCCCCCCCCC(=O)Nc1ccn([C@@H]2O[C@H](CO)[C@@H](O)[C@@H]2C#N)c(=O)n1

>  <PARAMETER_MEASURED>
GI50

>  <RESULT_VALUE>
> 77.9 µM

$$$$
>  <COMPOUND_STRUCTURE_STRING>
CC(C)(C(=O)NCC(F)(F)C(F)(F)F)C(=O)N[C@@H]1C(=O)Nc2ccccc2-c2ccccc21

>  <PARAMETER_MEASURED>
GI50

>  <RESULT_VALUE>
20 µM

$$$$

Cited source: PubChem BioAssay (NCI)
